Data origin: patent US11814435B2

ka (1/Ms) huBCMA @ 37° C. values by entry
- STUDY TARGET: T1, hBCMA (human BCMA) (Homo sapiens, UniProt Q02223)
- T1 sequence (Q02223 1-184): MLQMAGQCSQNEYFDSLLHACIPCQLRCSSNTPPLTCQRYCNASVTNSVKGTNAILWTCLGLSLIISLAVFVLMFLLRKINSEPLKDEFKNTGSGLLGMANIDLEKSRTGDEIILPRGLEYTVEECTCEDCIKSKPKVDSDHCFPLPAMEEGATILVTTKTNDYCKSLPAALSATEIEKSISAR
- MEASUREMENT NOTES: Kinetics and affinity of hBCMA/human IgG interactions by SPR (Bio-Rad Proteon XPR36)
- Format: binding
- STUDY CONDITIONS: huBCMA, 37° C.
- Procedure: All experiments were performed on a Bio-Rad Proteon XPR36 surface Plasmon resonance biosensor (Bio-Rad, Hercules, Calif.). […] The analysis temperature for the hBCMA binding analysis was 37° C. or 25° C. in a running buffer of HBS-T+, supplemented with 1 mg/mL BSA. […] Immediately after the 50 nM hBCMA injection, dissociation was monitored for 2 hours. […]
Kindly provide the numeric value in M⁻¹ s⁻¹ only, without the unit symbol.

The examples below pair each entry with its known result.
[[record]]
molecule = "L3.PY/L1.PS/H2.YQ: anti-BCMA antibody (antibody, V domains shown) VH: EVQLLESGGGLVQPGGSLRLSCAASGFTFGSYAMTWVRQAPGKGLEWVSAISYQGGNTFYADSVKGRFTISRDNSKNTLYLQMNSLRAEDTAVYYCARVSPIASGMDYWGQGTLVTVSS VL: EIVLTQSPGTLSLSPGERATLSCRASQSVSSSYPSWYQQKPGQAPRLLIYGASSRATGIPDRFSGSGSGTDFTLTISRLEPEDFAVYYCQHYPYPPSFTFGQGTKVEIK"
property_name = "ka (1/Ms) huBCMA @ 37° C."
readout_unit = "M⁻¹ s⁻¹"
observed_measurement = "3.35e+06"

[[record]]
molecule = "L3.PY/H2.QR: anti-BCMA antibody (antibody, V domains shown) VH: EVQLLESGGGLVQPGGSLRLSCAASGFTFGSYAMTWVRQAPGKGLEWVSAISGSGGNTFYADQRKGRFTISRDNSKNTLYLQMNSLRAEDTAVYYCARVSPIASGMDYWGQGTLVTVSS VL: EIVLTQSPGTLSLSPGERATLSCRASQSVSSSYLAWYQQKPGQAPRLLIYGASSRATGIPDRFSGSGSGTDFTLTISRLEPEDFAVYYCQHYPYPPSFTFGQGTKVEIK"
property_name = "ka (1/Ms) huBCMA @ 37° C."
readout_unit = "M⁻¹ s⁻¹"
observed_measurement = "2.56e+06"

[[record]]
molecule = "L3.PY/H3.YA: anti-BCMA antibody (antibody, V domains shown) VH: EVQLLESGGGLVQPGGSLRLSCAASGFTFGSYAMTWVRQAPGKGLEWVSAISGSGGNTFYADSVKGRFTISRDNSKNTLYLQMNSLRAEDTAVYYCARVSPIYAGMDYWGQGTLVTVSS VL: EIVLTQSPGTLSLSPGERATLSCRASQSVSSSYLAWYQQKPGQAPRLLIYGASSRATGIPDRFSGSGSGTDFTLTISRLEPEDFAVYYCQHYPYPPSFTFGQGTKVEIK"
property_name = "ka (1/Ms) huBCMA @ 37° C."
readout_unit = "M⁻¹ s⁻¹"
observed_measurement = "3.15e+06"


Exercise: Form field: reported ka (1/Ms) huBCMA @ 37° C. of L3.PY/H2.YQ: anti-BCMA antibody (antibody, V domains shown) VH: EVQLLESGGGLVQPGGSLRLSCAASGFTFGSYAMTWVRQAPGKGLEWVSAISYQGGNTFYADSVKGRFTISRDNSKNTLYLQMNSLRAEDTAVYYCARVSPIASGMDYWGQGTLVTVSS VL: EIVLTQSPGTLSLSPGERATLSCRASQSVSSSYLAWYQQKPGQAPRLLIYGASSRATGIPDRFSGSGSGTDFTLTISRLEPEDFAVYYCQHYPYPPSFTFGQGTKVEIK
Key: 2.58e+06

Exercise: Could you tell me which ka (1/Ms) huBCMA @ 37° C. is on file for L3.PY/L3.KY/H2.HA: anti-BCMA antibody (antibody, V domains shown) VH: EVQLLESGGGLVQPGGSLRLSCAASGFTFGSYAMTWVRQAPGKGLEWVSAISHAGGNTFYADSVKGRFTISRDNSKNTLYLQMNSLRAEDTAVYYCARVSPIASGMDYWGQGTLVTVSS VL: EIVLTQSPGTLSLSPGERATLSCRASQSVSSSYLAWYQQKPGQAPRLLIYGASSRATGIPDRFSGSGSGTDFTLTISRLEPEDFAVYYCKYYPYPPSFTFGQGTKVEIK ?
Key: 3.29e+06
